# maps each entry to its IC50
Tested on: IL-8 production
Assay: P. acnes-induced IL-8 production in HaCaT keratinocytes (ELISA)
Type: cell-based, human
Details: Homo sapiens; HaCaT cells pre-treated 24 h, then stimulated with P. acnes; read-out: IC50 of inhibition of IL-8 production

Some solved cases for reference:
{"columns": ["compound", "observable", "data_value"],
 "data": [
  ["Cc1cccc(CN2CCN(C(c3ccccc3)c3ccc(Cl)cc3)CC2)c1 (stereo not drawn)", "IC50", "~3000 nM"],
  ["Cc1cc(-n2ncc(=O)[nH]c2=O)cc(Cl)c1Sc1ccc(Cl)cc1", "IC50", "~3000 nM"]
]}

input: Sample N#CC(c1ccc(Cl)cc1)c1c(Cl)cc(-n2ncc(=O)[nH]c2=O)cc1Cl (stereo not drawn) — what was its IC50?
output: ~6000 nM

---

Tested on: IL-1β production
Experiment: P. acnes-induced IL-1β production in ThP-1 monocytes (ELISA)
Type: cell-based
Settings: Homo sapiens; ThP-1 cells pre-treated 24 h, then stimulated with P. acnes; read-out: IC50 of inhibition of IL-1β production
Collected IC50 values appear next to each entry.

{"columns": ["molecule", "IC50"],
 "data": [
  ["N#CC(c1ccc(Cl)cc1)c1c(Cl)cc(-n2ncc(=O)[nH]c2=O)cc1Cl (centres unmarked) [diclazuril, Diclazuril]", "~3 µM"]
]}

Now consider a different molecule.
input: Param item = Cc1cccc(CN2CCN(C(c3ccccc3)c3ccc(Cl)cc3)CC2)c1 (centres unmarked) [meclozine, Meclozine] ; retrieve measured IC50.
output: ~6 µM

Entry source: patent US11617748B2
